The variants listed here are annotated with their self-cleavage.
B1: Hairpin Ribozyme (parent)
chain: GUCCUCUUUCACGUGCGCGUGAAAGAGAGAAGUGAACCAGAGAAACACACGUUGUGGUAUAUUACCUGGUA

Variants of: B1
Assay: self-cleavage, relative activity (ratio to wild type); higher = more cleavage; co-transcriptional

- Query sequence: "GUCCUCUUUCACGUGCGGGUGAAAGAGAGAAGUGAACCAGAGAAACACACGUUGUGUUAUAUUACCUGGUA"
  self-cleavage: 0.243
- Query sequence: "GUCCUAUUUCACGUGCGCGUGAAAGAGAGAAGUGGACCAGAGAAACACACGUUGUGGUAUAUUACCUGGUA"
  self-cleavage: 0.619
- Query sequence: "GUCCUCUUUCACGUGCGCGUGAAAGAGAGAAGUGAACCAGAGGAACACACGUUGUGGUAUAUUACCGGGUA"
  self-cleavage: 0.207
- Query sequence: "GUCCUCUUUCACGUGCGCGUGAAAGAGAGAAGUGACCCAGAGAAACACAAGUUGUGGUAUAUUACCUGGUA"
  self-cleavage: 0.0511
- Query sequence: "GUCCUCUUUCACGUGCGCGUGAAAGAGUGAAGUGAUCCAGAGAAACACACGUUGUGGUAUAUUACCUGGUA"
  self-cleavage: 0.276
- Query sequence: "GUCCUCUUUCACGUGCGCGUGAAAGAGAGAAGUGAACCAGAGACACGCACGUUGUGGUAUAUUACCUGGUA"
  self-cleavage: 0.125
- Query sequence: "GUCCUCUUUCACGCGCGCGUGAAAGAGAGAAGUGAACCAGAGAAACACACGUUGUGGUAUAUUCCCUGGUA"
  self-cleavage: 0.257
- Query sequence: "GUUCUCUUUCACGUGCGCGUGGAAGAGAGAAGUGAACCAGAGAAACACACGUUGUGGUAUAUUACCUGGUA"
  self-cleavage: 0.603
- Query sequence: "GUCCUCUUUCACGUGCGCGUCAAAGAGAGAAGUGAAUCAGAGAAACACACGUUGUGGUAUAUUACCUGGUA"
  self-cleavage: 0.583
- Query sequence: "GUCCUCUUUCACGUGCGCGUGAAAGAGAGAAGUGAACCGGAGAAACACACGUUGUGGGAUAUUACCUGGUA"
  self-cleavage: 0.114
- Query sequence: "GUCCUCUUUCACGUGCGCGUGAAAGACGGAAGUGAACCAGAGAAACACACGUUGUGGUAUAUUACCUGGUA"
  self-cleavage: 0.128
- Query sequence: "GUCCUCUUUCACGUGCGCGUGAAUGAGAGAAGUGAACCAGAGGAACACACGUUGUGGUAUAUUACCUGGUA"
  self-cleavage: 0.159
- Query sequence: "GUCCUCGUUCACGGGCGCGUGAAAGAGAGAAGUGAACCAGAGAAACACACGUUGUGGUAUAUUACCUGGUA"
  self-cleavage: 0.729
- Query sequence: "GUCCUCUUUCACGUGCGCGUGAAAGAGAGAAGUGAGCCAGAGAAACACACAUUGUGGUAUAUUACCUGGUA"
  self-cleavage: 0.943
- Query sequence: "GUCCUCUUUCACGUGCGCGUGAAAGAGAGAAGUGAACCAGAGAAACACACGUUGAGGUAUAUUACCUCGUA"
  self-cleavage: 0.098
- Query sequence: "GUCCUCUUUCACGUGCGCGUUAAAGAGAGGAGUGAACCAGAGAAACACACGUUGUGGUAUAUUACCUGGUA"
  self-cleavage: 0.149
- Query sequence: "GUCCUCUUCCACGUGCGCGUGAAAGAGAGAAGUCAACCAGAGAAACACACGUUGUGGUAUAUUACCUGGUA"
  self-cleavage: 1.3
- Query sequence: "GUCCUCUUUCUCUUGCGCGUGAAAGAGAGAAGUGAACCAGAGAAACACACGUUGUGGUAUAUUACCUGGUA"
  self-cleavage: 0.54
- Query sequence: "GUCCUCUUUCACGUGCGCGUGAAAGAGAGCAGUGAACCAGAGAAACACACGUUGAGGUAUAUUACCUGGUA"
  self-cleavage: 0.146
- Query sequence: "GUCCUCUUUCACGUGCGCGUUAAAGAGAGAAGUGAACCAGAGAAACACACGUUGUGGCAUAUUACCUGGUA"
  self-cleavage: 0.84
- Query sequence: "GUCCUCUUUCACGUGCGCGUGAAAGGGAGAAGUGAACCAGAGAAACACACGUUGUGAUAUAUUACCUGGUA"
  self-cleavage: 0.196
- Query sequence: "GUCCUCUUUCACGUGCGCGUGAAGAAGAGAAGUGAACCAGAGAAACACACGUUGUGGUAUAUUACCUGGUA"
  self-cleavage: 0.591
